Listing of recorded ROS IC50 by entry.
Target: T1, human C5a (source not stated) (human, UniProt P01031 678-751)
T1 sequence: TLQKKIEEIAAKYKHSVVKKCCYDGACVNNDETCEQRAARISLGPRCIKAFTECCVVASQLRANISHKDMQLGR
Experiment: cell-based or functional assay
Entry rule: numbers only, all in nM.

Cab45-IgG1 (antibody, V domains shown, Full-length human IgG1) VH: EVQLVESGGGLVQPGGSLRLSCAASGFTFSDYYIQWVRQAPGKGPEWVGLIRNKAVGGTTTYAASVKGRFTISRDDSKNSAYLQMNSLKTEDTAVYFCVSRAGPPGLSWGQGVLVTVSS VL: DIVMTQSPLSLPVTPGEPASISCRSSQNLLATDGYTYLDWYLQKPGQSPQLLIYGGSKRASGVPDRFSGSGSGTDFTLKISRVEAEDVGVYYCLQHRALPPTFGQGTKLEIK: 0.64

Could you now consider this next binder?
Name the reported ROS IC50 value associated with the binder Cab42-IgG1 (antibody, V domains shown, Full-length human IgG1; It was biotinylated in the peptide-Fc ELISA) VH: EMQLVESGGGLVQPGGSLRLSCAASGFTFSDYYMQWVRQAPGKGPEWVGLIRNKAVGETTQYAASVKGRFTISRDDSKNSVYLQMNSLKTEDTAVYYCVSRAGPPGLSWGQGVLVTVSS VL: DIVMTQSPLSLPVTPGEPASISCRSSQSLLASDAYNYIDWYLQKPGQSPQLLIYGGSNRASGVPDRFSGSGSGTDFTLKISRVEAEDVGVYFCLQHRALPPTFGQGTKLEIK
0.78
